Each entry below carries its recorded normalized growth.
assayOverview: chemical genetic growth profiling, strain panel (AID 1159580);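 note: tested at 20 µM; growth read once vehicle control cultures reached saturation at 30 °C; 1 = growth at the plate median or of vehicle wells; lower values mean less growth of the strain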
cond: S. cerevisiae deletion strains, growth OD, strain NNK1, active compounds read low
The whole screen tested about 5,500 compounds, of which about 2,000 (36%) were called active. Inconclusive results (about 18%) are left out. The list shows a part of the results.
Provide a numeric answer; units are not to be included.

{"columns": ["compound", "normalized growth"],
 "data": [
  ["O=[N+]([O-])c1ccc2oc(C(O)c3cccc(Cl)c3)cc2c1 (configuration not stated)", 0.934],
  ["CC(C)(C)c1ccc(C(=O)Nc2ccc(C(F)(F)F)cc2)s1", 0.98],
  ["CC1(C)OC(=O)C(=Cc2cccn2-c2ccc(OC(F)(F)F)cc2)C(=O)O1", 0.976]
]}

[ask] Respond only with normalized growth recorded for FC(F)(F)c1ccnc(N2CCCN(C(=S)Nc3ccc(Cl)cc3Cl)CC2)n1
[reply] 0.962

[ask] Respond only with normalized growth recorded for O=c1c2ccccc2[nH]c(=S)n1-c1cccc(C(F)(F)F)c1
[reply] 0.961

[ask] Respond only with normalized growth recorded for Cc1ccc(NNC(=O)c2c(C)noc2C)cc1Cl
[reply] 0.975

[ask] Respond only with normalized growth recorded for CC(=O)ON=C1c2cc([N+](=O)[O-])ccc2-c2ccc([N+](=O)[O-])cc21
[reply] 0.944

[ask] Respond only with normalized growth recorded for CCCCCCCCCCCC(=O)NOC(=O)c1c(-c2c(Cl)cccc2Cl)noc1C
[reply] 0.996

---

assayOverview: chemical genetic growth profiling, strain panel (AID 1159580)
cond: S. cerevisiae deletion strains, growth OD, locus YDR297W, strain sur2
Among all 5,500 compounds or so, about 2,000 (36%) were called active. About 18% were inconclusive and are not listed. Rule as the data show it: active = normalized growth mostly below about 0.91 (no sharp cut-off); inconclusive = no clear call, values can overlap the other calls; inactive = mostly above about 0.92. The list shows a part of the results.
# valid calls are class 1 for active, class 0 for inactive; nothing else

{"columns": ["compound", "discreteLabel"],
 "data": [
  ["CC(C)NNC(=O)c1ccncc1", "class 0"],
  ["OC(Cn1cncn1)(Cn1cncn1)c1ccc(F)cc1F", "class 0"],
  ["C=CCCCCCCCCCCCC(O)CC(O)COC(C)=O (stereo unspecified) (tested in a mixture with another compound)", "class 0"],
  ["CC(=O)OCC(OC(C)=O)C(OC(C)=O)C(OC(C)=O)C(OC(C)=O)C(COC(C)=O)OC(C)=O (stereo unspecified)", "class 0"],
  ["C#CCCCCCCCCCCCC(O)CC(O)CO (stereo unspecified)", "class 0"]
]}

[ask] Hi, sorry to bother you, what did the test record for C=CC(N)CCC(=O)O (stereo unspecified) ?
[reply] class 0

[ask] Hi, sorry to bother you, what did the test record for C#CCCCCCCCCCCCC(O)CC(O)COC(C)=O (stereo unspecified) ?
[reply] class 1

[ask] Hi, sorry to bother you, what did the test record for COc1cc(OC)c2c(=O)c(-c3ccccc3)coc2c1 ?
[reply] class 0

[ask] Hi, sorry to bother you, what did the test record for C=C1C(=O)O[C@@H]2C[C@@]3(C)CCC[C@H](C)C3=C[C@H]12 ?
[reply] class 1

[ask] Hi, sorry to bother you, what did the test record for COc1cc(-c2coc3cc(OC)c(OC)c(OC)c3c2=O)cc(OC)c1OC ?
[reply] class 0

[ask] Hi, sorry to bother you, what did the test record for COc1ccc(-c2coc3cc(OC)cc(OC)c3c2=O)cc1 ?
[reply] class 0

---

assayOverview: chemical genetic growth profiling, strain panel (AID 1159580)
cond: S. cerevisiae deletion strains, growth OD, locus YKL085W, strain MDH1 (second series)
Screen size: about 5,500 compounds; about 2,000 (36%) were called active. Another 18% or so got no clear call; they are omitted. No stated cut-off is given here; in the data, active means normalized growth mostly below about 0.91 (no sharp cut-off); inconclusive means no clear call, values can overlap the other calls; inactive means mostly above about 0.92. Some of the results follow.
# valid calls are Y = active, N = inactive; nothing else

{"columns": ["molecule", "discreteLabel"],
 "data": [
  ["CC(C)(C)CC(C)(C)c1ccc(O)c(Cc2ccc(Cl)cc2Cl)c1", "N"],
  ["CCCC(=O)O[C@]1(C(=O)CO)CCC2[C@@H]3CCC4=CC(=O)CC[C@]4(C)C3[C@@H](O)C[C@@]21C (some centres not stated)", "N"],
  ["NS(=O)(=O)c1cc2c(cc1Cl)NC(C(Cl)Cl)NS2(=O)=O (configuration not stated)", "N"],
  ["O=C1NC(=O)C(=O)C(=O)N1", "N"],
  ["Oc1ccc(Cl)cc1", "N"]
]}

[ask] Hi, sorry to bother you, what did the test record for Oc1ccc(Cl)cc1Cc1cc(Cl)ccc1O ?
[reply] Y

[ask] Hi, sorry to bother you, what did the test record for OCc1ccccc1O ?
[reply] N

[ask] Hi, sorry to bother you, what did the test record for CC(C)NCC(O)c1cc(O)cc(O)c1 (configuration not stated) ?
[reply] N

[ask] Hi, sorry to bother you, what did the test record for O=C(O)c1ccccc1-c1c2cc(Br)c(=O)cc-2oc2[c]([Hg])c(O)c(Br)cc12 ?
[reply] Y

---

assayOverview: chemical genetic growth profiling, strain panel (AID 1159580);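 note: tested at 20 µM; growth read once vehicle control cultures reached saturation at 30 °C; 1 = growth at the plate median or of vehicle wells; lower values mean less growth of the strain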
cond: S. cerevisiae deletion strains, growth OD, locus YGR252W, strain gcn5, active compounds read low
Screen size: about 5,500 compounds; about 2,000 (36%) were called active. Not shown: some 18% with an inconclusive outcome. The list shows a part of the results.
endpointLabel: normalized growth

{"columns": ["compound", "endpointLabel", "result"],
 "data": [
  ["O=c1cc[nH]c(=S)[nH]1", "normalized growth", "1.09 (inactive)"]
]}

[ask] Respond only with normalized growth recorded for C=C1CCC(C2CC(=O)OC2=O)C(=O)CCC2C1CC2(C)C (stereo unspecified)
[reply] 1.09 (inactive)

[ask] Respond only with normalized growth recorded for CCCCN(CCCC)CCCOC(=O)c1ccc(N)cc1
[reply] 1.16 (inactive)

[ask] Respond only with normalized growth recorded for CC(C)C(C)/C=C/C(C)[C@H]1CCC2C3=CCC4CC(=O)CC[C@]4(C)C3CC[C@@]21C (stereo partly specified)
[reply] 0.985 (inactive)

[ask] Respond only with normalized growth recorded for CCN(CC)C(=O)c1cccc(C)c1
[reply] 0.98 (inactive)

[ask] Respond only with normalized growth recorded for C/C1=C\CCC(=O)C2CC(C)(C)C2CC1 (stereo unspecified)
[reply] 1 (inactive)

[ask] Respond only with normalized growth recorded for NS(=O)(=O)c1cc2c(cc1Cl)NC(C(Cl)Cl)NS2(=O)=O (stereo unspecified)
[reply] 0.991 (inactive)

[ask] Respond only with normalized growth recorded for C=C1CCC2C(CC2(C)C)C(=O)CCC1O (stereo unspecified)
[reply] 1.08 (inactive)

[ask] Respond only with normalized growth recorded for C=C1CCC(OC(C)=O)/C(C)=C/C[C@@H]2[C@@H]1CC2(C)C (stereo partly specified)
[reply] 1.05 (inactive)

[ask] Respond only with normalized growth recorded for CC(=O)OC1CCC2(C)C(=CC=C3C2CCC2(C)C3CCC2C(C)/C=C/C(C)C(C)C)C1(C)C (stereo unspecified)
[reply] 1.03 (inactive)

[ask] Respond only with normalized growth recorded for CCCC(=O)O[C@]1(C(=O)CO)CCC2[C@@H]3CCC4=CC(=O)CC[C@]4(C)C3[C@@H](O)C[C@@]21C (stereo partly specified)
[reply] 0.94 (inactive)

---

assayOverview: chemical genetic growth profiling, strain panel (AID 1159580);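 note: tested at 20 µM; growth read once vehicle control cultures reached saturation at 30 °C; 1 = growth at the plate median or of vehicle wells; lower values mean less growth of the strain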
cond: S. cerevisiae deletion strains, growth OD, locus YDR392W, strain spt3, active compounds read low
Out of some 5,500 compounds screened, about 2,000 (36%) were called active. Roughly 18% stayed inconclusive and do not appear here. Some of the results follow.
Each entry below carries its recorded normalized growth.
Provide a numeric answer; units are not to be included.

Example entries and their recorded answers appear below.
{"columns": ["compound", "normalized growth"],
 "data": [
  ["C#CCCCCCCCCCCCC(=O)CC(O)COC(C)=O (stereo not drawn)", 0.476],
  ["COc1c2ccoc2c(OC)c2oc(=O)ccc12", 0.724]
]}

Please examine the following record next.
[ask] Respond only with normalized growth recorded for COc1cc2c(cc1OC)C1Cc3ccc(OC)c(OC)c3CN1CC2 (stereo not drawn)
[reply] 0.982

---

Each entry below carries its recorded normalized growth.
assayOverview: chemical genetic growth profiling, strain panel (AID 1159580);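 note: tested at 20 µM; growth read once vehicle control cultures reached saturation at 30 °C; 1 = growth at the plate median or of vehicle wells; lower values mean less growth of the strain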
cond: S. cerevisiae deletion strains, growth OD, locus YJL095W, strain BCK1, active compounds read low
About 2,000 (36%) of roughly 5,500 compounds were called active. Roughly 18% stayed inconclusive and do not appear here. The list shows a part of the results.
Provide a numeric answer; units are not to be included.

{"columns": ["compound", "normalized growth"],
 "data": [
  ["CCCC[C@@H](CC)COC(=O)c1ccccc1O", 1.02],
  ["C=CCCCCCCCCCCCC(O)CC(O)COC(C)=O (stereo not drawn) (tested in a mixture with another compound)", 0.827],
  ["O=c1cc(-c2ccccc2O)oc2cc(O)ccc12", 0.997],
  ["Cc1cccc(NC(=S)NNC(=O)CSCc2cccc3ccccc23)c1", 0.995],
  ["CCCCOC(=O)c1ccccc1C(=O)OCc1ccccc1", 0.994]
]}

[ask] Respond only with normalized growth recorded for O=C(O)c1cc2cc(Cc3cccnc3)ccc2o1
[reply] 1.01

[ask] Respond only with normalized growth recorded for O=C1C=C2C=C[C@@H]3C[C@@]2(O1)[C@H]1CCCCN31
[reply] 1

[ask] Respond only with normalized growth recorded for Cc1c(S(=O)(=O)O)oc2c1C(=O)C(=O)c1c-2ccc2c1CCCC2(C)C
[reply] 0.979
